system_name: Human BCMA (human) (UniProt Q02223)
method_notes: SPR, IgG immobilised, huBCMA analyte, 37 C
result_type: T½ (min)

[[record]]
binder = "L3.PY/L3.KY/H2.YQ (antibody, V domains shown, IgG) VH: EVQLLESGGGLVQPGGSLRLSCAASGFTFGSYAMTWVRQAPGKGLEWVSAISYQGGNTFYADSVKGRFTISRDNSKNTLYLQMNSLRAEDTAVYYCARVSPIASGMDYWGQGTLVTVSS VL: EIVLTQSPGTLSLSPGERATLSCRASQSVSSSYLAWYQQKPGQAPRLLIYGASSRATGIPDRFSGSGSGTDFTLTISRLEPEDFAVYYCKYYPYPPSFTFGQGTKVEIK"
meas_value = 7.02

[[record]]
binder = "L3.PY/L1.FF/H3.YA (antibody, V domains shown, IgG) VH: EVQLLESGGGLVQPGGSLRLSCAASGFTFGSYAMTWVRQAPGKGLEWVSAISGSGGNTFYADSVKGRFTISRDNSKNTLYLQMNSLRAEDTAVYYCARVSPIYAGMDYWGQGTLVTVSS VL: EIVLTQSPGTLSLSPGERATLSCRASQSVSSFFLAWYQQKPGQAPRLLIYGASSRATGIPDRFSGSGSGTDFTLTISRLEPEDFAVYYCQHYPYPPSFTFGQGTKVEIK"
meas_value = 6.41

[[record]]
binder = "L3.PY/L3.KF/H2.QL (antibody, V domains shown, IgG) VH: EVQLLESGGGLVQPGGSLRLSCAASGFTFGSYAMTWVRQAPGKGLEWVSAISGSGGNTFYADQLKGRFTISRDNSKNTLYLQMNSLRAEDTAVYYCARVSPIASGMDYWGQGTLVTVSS VL: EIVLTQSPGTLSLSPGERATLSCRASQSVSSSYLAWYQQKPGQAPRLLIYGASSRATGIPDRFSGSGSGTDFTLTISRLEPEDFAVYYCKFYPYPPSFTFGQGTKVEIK"
meas_value = 9.26

